subject-of-test: T1, Biotinylated CD3-specific binding domain SEQ ID NO: 14 (biotinylated (site not stated))
T1 construct: Ligand on the neutravidin (NLC) SPR chip
T1 chain: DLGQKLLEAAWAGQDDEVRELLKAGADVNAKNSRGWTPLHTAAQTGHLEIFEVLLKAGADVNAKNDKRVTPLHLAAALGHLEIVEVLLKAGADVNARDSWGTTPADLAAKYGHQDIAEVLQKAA
experiment: calculated from SPR koff (ln2/koff)
reported-property: Blocking T1/2

In the examples that follow, each entry is paired with its recorded Blocking T1/2.
>>> endpoint_result("Binder #2 (designed binder) MRGSHHHHHHGSDLGKKLLQAARAGQLDEVRELLKAGADVNAKDFKGLTPLHLAAAHGHLEIVEVLLKAGADVNAKDVYGWTPLHWAAASGHLEIVEVLLKAGADVNAKDWLGITPLHLAASHGHLEIVEVLLKAGADVNAQDKSGKTPADLAARAGHQDIAEVLQKAA")
"9.6 h"
>>> endpoint_result("Binder #5 (designed binder) MRGSHHHHHHGSDLGKKLLQAARAGQLDEVRELLKAGADVNAKDHYGWTPLHIAAQIGHLEIVEVLLKAGADVNAKDWIGYTPLHLAASHGHLEIVEVLLKAGADVNAKDVSGKTPLHVAAAHGHLEIVEVLLKAGADVNAQDKSGKTPADLAARAGHQDIAEVLQKAA")
"> 3.9 h"
>>> endpoint_result("Binder #8 (designed binder) MRGSHHHHHHGSDLGKKLLQAARAGQLDEVRELLKAGADVNAKDHYGWTPLHIAAQRGHLEIVEVLLKAGADVNAKDWLGWTPLHVAASHGHLEIVEVLLKAGADVNAKDLSGRTPLHIAARQGHLEIVEVLLKAGADVNAQDKSGKTPADLAARAGHQDIAEVLQKAA")
"> 3.9 h"
>>> endpoint_result("Binder #9 (designed binder) MRGSHHHHHHGSDLGKKLLQAARAGQLDEVRELLKAGADVNAKDHYGWTPLHLAASEGHLEIVEVLLKAGADVNAKDWIGWTPLHLAASFGHLEIVEVLLKAGADVNAKDVSGKTPLHIAARQGHLEIVEVLLKAGADVNAQDKSGKTPADLAARAGHQDIAEVLQLQKAA")
"> 3.9 h"

Here is another binder to look at.
q: May I ask what Blocking T1/2 has been recorded for Binder #6 (designed binder) MRGSHHHHHHGSDLGKKLLQAARAGQLDEVRELLKAGADVNAKDQYGWTPLHLAAYSGHLEIVEVLLKAGADVNAKDWVGWTPLHLAASHGHLEIVEVLLKAGADVNAKDEAGRTPLHIAAKQGHLEIVEVLLKAGADVNAQDKSGKTPADLAARAGHQDIAEVLQKAA ?
a: > 3.9 h

All figures here come from patent US20240108746A1.
